The reported numbers originate from patent US8927717B1.

Record form. Attribute: Growth percent. Fill in for each entry.
- Test system: NCI/ADR-RES
- Type: cell-based
- condition-label: NCI/ADR-RES; 10^−5 molar
Write your answer as a measured quantity: the number, then the unit.

Use these answered entries as a reference point.
O=c1c2cc(Cl)ccc2sc2c(NCc3ccccc3)nc3ccccc3c12 = 77.36%
O=c1c2cc(Cl)ccc2sc2c(NC3CCCCC3)nc3ccccc3c12 = 95.91%

Field: next compound
Input line: Param item = "O=c1c2cc(Cl)ccc2sc2c(NCc3ccc4c(c3)OCO4)nc3ccccc3c12" ; retrieve measured Growth percent.
Output line: 91.11%

----------
Give melting point for every item shown.

Consider the following illustrative entries.
CC(C)CC(C)Nc1nc2ccccc2c2c(=O)c3cc(Cl)ccc3sc12 (centres unmarked) [Compound N13] = 176 to 177 °C
O=c1c2cc(Cl)ccc2sc2c(NCC3CCCCC3)nc3ccccc3c12 [Compound N24] = 165 to 166 °C
O=c1c2cc(Cl)ccc2sc2c(N3CCCC3)nc3ccccc3c12 [Compound 20] = 170 to 171 °C
O=c1c2ccc(Cl)cc2sc2c(Cl)nc3ccccc3c12 [Compound 3] = 259 to 261 °C
O=c1c2cc(Cl)ccc2sc2c(N3CCOCC3)nc3ccccc3c12 [Compound 13] = 217 to 218 °C
CCCCNc1nc2ccccc2c2c(=O)c3cc(Cl)ccc3sc12 [Compound N4] = 147 to 149 °C
O=c1c2cc(Cl)ccc2sc2c(O)nc3ccccc3c12 [Compound 4] = > 410 °C
COc1nc2ccccc2c2c(=O)c3cc(Cl)ccc3sc12 [Compound 5] = 227 to 228 °C

Provide reported melting point for each item, in the same order as listed.
1. O=c1c2cc(Cl)ccc2sc2c(NC3CCCCC3)nc3ccccc3c12 [Compound N21]
2. CN(C)CCCNc1nc2ccccc2c2c(=O)c3cc(Cl)ccc3sc12 [Compound N17]
3. O=c1c2cc(Cl)ccc2sc2c(NCc3ccccn3)nc3ccccc3c12 [Compound N26]
4. COc1ccc(CNc2nc3ccccc3c3c(=O)c4cc(Cl)ccc4sc23)cc1OC [Compound N29]
5. O=C1CCCCN1c1nc2ccccc2c2c(=O)c3cc(Cl)ccc3sc12 [Compound 21]
6. CCC(CO)Nc1nc2ccccc2c2c(=O)c3cc(Cl)ccc3sc12 (centres unmarked) [Compound N12]

Output line:
1. 196 to 197 °C
2. 194 to 195 °C
3. 187 to 189 °C
4. 251 to 252 °C
5. 258 to 261 °C
6. 203 to 204 °C
